Each entry below carries its reported Emax.
# System: c-myc in 22RV-1 cells
# assay.remarks: Human c-myc ELISA assay
# Format: cell-based
# condition.summary: Homo sapiens, 22Rv1, 18 h, read-out: Degradation of BRD4: Maximum inhibition (%) c-Myc ELISA in 22RV1 cells
Write it as a number; the unit % goes unstated.

Known results for molecules:
Cc1ncsc1-c1ccc(CNC(=O)[C@@H]2C[C@@H](O)CN2C(=O)[C@@H](NC(=O)COCCCOCCCOc2ccc(NC(=O)C[C@@H]3N=C(c4ccc(Br)cc4)c4c(sc(C)c4C)-n4c(C)nnc43)cc2)C(C)(C)C)cc1 [Example 62]; 98.5
Cc1ncsc1-c1ccc(CNC(=O)[C@@H]2C[C@@H](O)CN2C(=O)[C@H](C(C)C)N2Cc3ccccc3C2=O)c(OCCOCCOCCOCCOCCNC(=O)C[C@@H]2N=C(c3ccc(Cl)cc3)c3c(sc(C)c3C)-n3c(C)nnc32)c1 [Example 2]; 41
Cc1ncsc1-c1ccc([C@H](C)NC(=O)[C@@H]2C[C@@H](O)CN2C(=O)[C@H](n2cc(-c3ccnc(O[C@H]4C[C@H](NC(=O)C[C@@H]5N=C(c6ccc(Cl)cc6)c6c(sc(C)c6C)-n6c(C)nnc65)C4)c3)cn2)C(C)(C)C)cc1 [Example 233]; 26
Cc1ncsc1-c1ccc(CNC(=O)[C@@H]2C[C@@H](O)CN2C(=O)[C@@H](NC(=O)c2cn3ccc(OCCCNC(=O)C[C@@H]4N=C(c5ccc(Cl)cc5)c5c(sc(C)c5C)-n5c(C)nnc54)cc3n2)C(C)(C)C)cc1 [Example 99]; 67
Cc1ncsc1-c1ccc(CNC(=O)[C@@H]2C[C@@H](O)CN2C(=O)[C@@H](NC(=O)COCCOCCOCCOc2ccc(NC(=O)C[C@@H]3N=C(c4ccc(Cl)cc4)c4c(sc(C)c4C)-n4c(C)nnc43)cc2)C(C)(C)C)cc1 [Example 11]; 99.5
Cc1ncsc1-c1ccc(CNC(=O)[C@@H]2C[C@@H](O)CN2C(=O)[C@@H](NC(=O)COCCOCCCOc2ccc([C@@H](C)NC(=O)C[C@@H]3N=C(c4ccc(Cl)cc4)c4c(sc(C)c4C)-n4c(C)nnc43)cc2)C(C)(C)C)cc1 [Example 29]; 96.8
Cc1ncsc1-c1ccc(CNC(=O)[C@@H]2C[C@@H](O)CN2C(=O)[C@@H](NC(=O)COCCCCOc2cccc(NC(=O)C[C@@H]3N=C(c4ccc(Cl)cc4)c4c(sc(C)c4C)-n4c(C)nnc43)c2)C(C)(C)C)cc1 [Example 126]; 99
Cc1ncsc1-c1ccc(CNC(=O)[C@@H]2C[C@@H](O)CN2C(=O)[C@H](C(C)C)N2Cc3ccccc3C2=O)c(OCCOCCOCCOCCNC(=O)C[C@@H]2N=C(c3ccc(Cl)cc3)c3c(sc(C)c3C)-n3c(C)nnc32)c1 [Example 1]; 100

Lookup: State the recorded Emax for this entry: Cc1ncsc1-c1ccc([C@H](C)NC(=O)[C@@H]2C[C@@H](O)CN2C(=O)[C@@H](n2cc(-c3ccnc(O[C@H]4C[C@H](NC(=O)C[C@@H]5N=C(c6ccc(Cl)cc6)c6c(sc(C)c6C)-n6c(C)nnc65)C4)c3)cn2)C(C)(C)C)cc1 [Example 234]
Found: 80.6

Lookup: State the recorded Emax for this entry: Cc1sc2c(c1C)C(c1ccc(Cl)cc1)=N[C@@H](CC(=O)N[C@H]1C[C@H](Oc3ccc(CC(=O)N[C@H](C(=O)N4C[C@H](O)C[C@H]4C(=O)N[C@@H](C)c4ccc(C(=O)N5CCC5)cc4)C(C)(C)C)cc3)C1)c1nnc(C)n1-2 [Example 282]
Found: 25.4

Lookup: State the recorded Emax for this entry: Cc1ncsc1-c1ccc([C@H](C)NC(=O)[C@@H]2C[C@@H](O)CN2C(=O)[C@@H](NC(=O)Cc2ccc(O[C@H]3C[C@@H](NC(=O)C[C@@H]4N=C(c5ccc(Cl)cc5)c5c(sc(C)c5C)-n5c(C)nnc54)C3)nc2)C(C)(C)C)cc1 [Example 270]
Found: 92.2

Lookup: State the recorded Emax for this entry: Cc1ncsc1-c1ccc([C@H](C)NC(=O)[C@@H]2C[C@@H](O)CN2C(=O)[C@@H](NC(=O)Cc2ccc(-c3cn(CCNC(=O)C[C@@H]4N=C(c5ccc(Cl)cc5)c5c(sc(C)c5C)-n5c(C)nnc54)cn3)cc2)C(C)(C)C)cc1 [Example 337]
Found: 96.4

Lookup: State the recorded Emax for this entry: Cc1ncsc1-c1ccc([C@H](C)NC(=O)[C@@H]2C[C@@H](O)CN2C(=O)[C@@H](NC(=O)COCCCOCCOc2cccc(NC(=O)C[C@@H]3N=C(c4ccc(Cl)cc4)c4c(sc(C)c4C)-n4c(C)nnc43)c2)C(C)(C)C)cc1 [Example 129]
Found: 96

Lookup: State the recorded Emax for this entry: Cc1ncsc1-c1ccc(CNC(=O)[C@@H]2C[C@@H](O)CN2C(=O)[C@@H](NC(=O)COc2ccccc2C(=O)N2CC[C@H](NC(=O)C[C@@H]3N=C(c4ccc(Cl)cc4)c4c(sc(C)c4C)-n4c(C)nnc43)C2)C(C)(C)C)cc1 [Example 87]
Found: 96.4

Lookup: State the recorded Emax for this entry: Cc1ncoc1-c1ccc(CNC(=O)[C@@H]2C[C@@H](O)CN2C(=O)[C@@H](NC(=O)COCCCOCCNC(=O)C[C@@H]2N=C(c3ccc(Cl)cc3)c3c(sc(C)c3C)-n3c(C)nnc32)C(C)(C)C)cc1 [Example 74]
Found: 97

Where do the numbers come from? From patent US11554171B2.
